B1: tRNA (parent)
chain: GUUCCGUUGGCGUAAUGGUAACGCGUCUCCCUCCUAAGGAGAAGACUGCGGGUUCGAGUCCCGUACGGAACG

- Variants of: B1
- test.details: yeast fitness relative to wild type (ratio to wild type); higher = fitter; tRNA-Arg(CCU), competitive growth, 37 C, YPD
Fewer inactive variants are shown than the library holds.
reported.endpoint: yeast fitness

[[record]]
variant_descriptor = "C5U C30G C61A"
reported_endpoint = "yeast fitness"
limit_sign = "≤"
numeric_value = 0.5

[[record]]
variant_descriptor = "U2A U32A A37U A43G"
reported_endpoint = "yeast fitness"
limit_sign = "≤"
numeric_value = 0.5

[[record]]
variant_descriptor = "A36C A45C G48A A65C"
reported_endpoint = "yeast fitness"
limit_sign = "≤"
numeric_value = 0.5

[[record]]
variant_descriptor = "C4G C60U C61G"
reported_endpoint = "yeast fitness"
limit_sign = "≤"
numeric_value = 0.5

[[record]]
variant_descriptor = "G10C C22A"
reported_endpoint = "yeast fitness"
limit_sign = "="
numeric_value = 0.705

[[record]]
variant_descriptor = "C11A C30U C33G U64C"
reported_endpoint = "yeast fitness"
limit_sign = "≤"
numeric_value = 0.5

[[record]]
variant_descriptor = "U3A C24G A69C"
reported_endpoint = "yeast fitness"
limit_sign = "≤"
numeric_value = 0.5

[[record]]
variant_descriptor = "G10C A14C C27A C29G A57C"
reported_endpoint = "yeast fitness"
limit_sign = "≤"
numeric_value = 0.5

[[record]]
variant_descriptor = "A15U A36C A40U G58C G67C"
reported_endpoint = "yeast fitness"
limit_sign = "≤"
numeric_value = 0.5

[[record]]
variant_descriptor = "G48C A70G"
reported_endpoint = "yeast fitness"
limit_sign = "="
numeric_value = 0.901

[[record]]
variant_descriptor = "C4A A14G U26A"
reported_endpoint = "yeast fitness"
limit_sign = "≤"
numeric_value = 0.5

[[record]]
variant_descriptor = "C4U C22U C55G"
reported_endpoint = "yeast fitness"
limit_sign = "≤"
numeric_value = 0.5

[[record]]
variant_descriptor = "C5A G12A G18A"
reported_endpoint = "yeast fitness"
limit_sign = "≤"
numeric_value = 0.5

[[record]]
variant_descriptor = "G23A A43C U59A"
reported_endpoint = "yeast fitness"
limit_sign = "="
numeric_value = 0.639

[[record]]
variant_descriptor = "A15C U59A C61A"
reported_endpoint = "yeast fitness"
limit_sign = "="
numeric_value = 0.698

[[record]]
variant_descriptor = "U2G U35A U54G"
reported_endpoint = "yeast fitness"
limit_sign = "≤"
numeric_value = 0.5

[[record]]
variant_descriptor = "U2A U47G C49A C60U A65C"
reported_endpoint = "yeast fitness"
limit_sign = "≤"
numeric_value = 0.5

[[record]]
variant_descriptor = "U2A U32C A36G"
reported_endpoint = "yeast fitness"
limit_sign = "="
numeric_value = 0.736

[[record]]
variant_descriptor = "U3G U28C C62U"
reported_endpoint = "yeast fitness"
limit_sign = "="
numeric_value = 0.638

[[record]]
variant_descriptor = "C5A C24G U26A C29G U32A G48A C66G G67U"
reported_endpoint = "yeast fitness"
limit_sign = "≤"
numeric_value = 0.5

[[record]]
variant_descriptor = "A40G G51C A57U"
reported_endpoint = "yeast fitness"
limit_sign = "≤"
numeric_value = 0.5

[[record]]
variant_descriptor = "G50C C61A"
reported_endpoint = "yeast fitness"
limit_sign = "="
numeric_value = 0.544

[[record]]
variant_descriptor = "G6A C60A"
reported_endpoint = "yeast fitness"
limit_sign = "="
numeric_value = 0.515

[[record]]
variant_descriptor = "C11A A15U A21U A36C A37U"
reported_endpoint = "yeast fitness"
limit_sign = "="
numeric_value = 0.56

[[record]]
variant_descriptor = "C5U C22G A65G"
reported_endpoint = "yeast fitness"
limit_sign = "="
numeric_value = 0.588

[[record]]
variant_descriptor = "U19C A21G U26G C49U"
reported_endpoint = "yeast fitness"
limit_sign = "="
numeric_value = 0.745

[[record]]
variant_descriptor = "A15G G44C G68U"
reported_endpoint = "yeast fitness"
limit_sign = "≤"
numeric_value = 0.5

[[record]]
variant_descriptor = "A20G U64G G68A A70C"
reported_endpoint = "yeast fitness"
limit_sign = "≤"
numeric_value = 0.5

[[record]]
variant_descriptor = "G52C U59G"
reported_endpoint = "yeast fitness"
limit_sign = "="
numeric_value = 0.538

[[record]]
variant_descriptor = "G23A C55U A57C G58A"
reported_endpoint = "yeast fitness"
limit_sign = "≤"
numeric_value = 0.5

[[record]]
variant_descriptor = "U19A C30U G38C"
reported_endpoint = "yeast fitness"
limit_sign = "="
numeric_value = 0.694

[[record]]
variant_descriptor = "G25U U64G"
reported_endpoint = "yeast fitness"
limit_sign = "="
numeric_value = 0.788

[[record]]
variant_descriptor = "G25A C31U U47G C55A A57G A65C A70C"
reported_endpoint = "yeast fitness"
limit_sign = "≤"
numeric_value = 0.5

[[record]]
variant_descriptor = "C4U G23C G51A A69G"
reported_endpoint = "yeast fitness"
limit_sign = "="
numeric_value = 0.586

[[record]]
variant_descriptor = "A42U C66G"
reported_endpoint = "yeast fitness"
limit_sign = "="
numeric_value = 0.712

